Taken from PubChem BioAssay.

tested on: XIP peptide (Xip251-270); assay: small-molecule binders of XIP peptide, primary screen, biochemical, small-molecule microarray, fluorescence 635/667 nm, 0.5 µg/mL protein (AID 1183); conditions: small-molecule microarray binding, fluorescence 635 nm; higher = more signal
Readout name: composite z-score
One number for each entry.

Example compounds with recorded composite z-score:
Compound	composite z-score
CCOC(=O)C[C@H]1[C@H](OC(=O)c2cc3ccccc3oc2=O)[C@@H](NC(=O)C2CCCCC2)c2cc(OCCCO)ccc2N1C(=O)c1ccccc1	0.327
O=C1OCCC/C=C\[C@H]2OC34C=CCN(c5ccc6ccccc6c5)C(=O)[C@H]3N(CCCCCCO)C(=O)[C@@H]4C12 (some centres not stated)	0.0339
CCCC=C(CCC)[C@@H](NS(=O)(=O)c1cccs1)c1ccc(C(=O)OC)cc1	0.507
O=C1c2ccccc2[C@@]2(Cc3ccccc3N(CCN3CCOCC3)C2=O)[C@H](c2ccc(CO)cc2)N1Cc1ccccc1	0.206
C=CCOC(=O)[C@@H]1[C@H]2C(=O)O[C@H](c3ccccc3)[C@H](c3ccccc3)N2[C@H](c2ccc(OCCOC(=O)[C@@H]3C[C@@H]4C(=O)N[C@@H](CCCC[N+](C)(C)C)C(=O)N4[C@@H]3c3cccc(OCCO)c3)cc2)[C@@]12C(=O)Nc1ccc(I)cc12	0.786

Can you give me composite z-score for all of these, one by one?
1. CCOc1cc(C(O)C2C=CC3C(=O)N(c4ccccc4)C(=O)C3N2Nc2ccccc2)ccc1O (configuration not stated)
2. CCCCCCC#C[Si](O[C@H](c1ccccc1)c1cn([C@H](CO)Cc2ccccc2)nn1)(C(C)C)C(C)C

[out]
0.221
0.0718
